# assay_summary: Conversion (release) of prodrug salts to parent compound in mouse plasma
# Format: in vitro ADME
# experimental_setup: mouse, plasma, 37 °C, 8 h, read-out: Release rate (conversion to Compound 82)
measured_property: metabolised at 8 h
Include the unit right after the number.

Lab note: measured metabolised at 8 h of CC1=C2CC[C@@](C)(OC(=O)N3CCCC3)[C@@H]2[C@H]2OC(=O)[C@@H](CN3CCCC3)[C@@H]2CC1 was 44.5%

---

# assay_summary: Conversion (release) of prodrug salts to parent compound in HEPES buffer pH 7.4
# Type: in vitro ADME
# experimental_setup: hepes buffer, pH 7.4, HEPES pH 7.4, 37 °C, 2 h; read-out: Release rate (conversion to Compound 1)
measured_property: degraded at 2 h (%)
One number for each entry, in %.

smiles_text=CCCN(CCC)C[C@@H]1C(=O)O[C@H]2[C@H]1CC[C@@]1(C)C[C@]13CC[C@@](C)(O)[C@H]23 readout_number=14.2
smiles_text=CCOC(=O)[C@@H]1CCCN1C[C@@H]1C(=O)O[C@H]2[C@H]1CC[C@@]1(C)C[C@]13CC[C@@](C)(O)[C@H]23 readout_number=14.3
smiles_text=C[C@@]12CC[C@@H]3[C@H](OC(=O)[C@H]3CN3CCC4(CCCC4)CC3)[C@@H]3[C@]1(CC[C@@]3(C)O)C2 readout_number=16.2

Lab note: measured degraded at 2 h of C[C@@]12CC[C@@H]3[C@H](OC(=O)[C@H]3CN3CCC(N4CCCCC4)CC3)[C@@H]3[C@]1(CC[C@@]3(C)O)C2 was 14.6

---

# assay_summary: Conversion (release) of prodrug salts to parent compound in HEPES buffer pH 7.4
# Format: in vitro ADME
# experimental_setup: hepes buffer, pH 7.4, HEPES pH 7.4, 37 °C, 2 h; read-out: Release rate (conversion to Compound 1)
Answer each item with its documented degraded at 2 h.

compound="CCN1CCN(C[C@@H]2C(=O)O[C@H]3[C@H]2CC[C@@]2(C)C[C@]24CC[C@@](C)(O)[C@H]34)CC1 [Compound 27]" measured_property="degraded at 2 h" result=15.4%

Look at each compound and report its degraded at 2 h.
1. C[C@@]12CC[C@@H]3[C@H](OC(=O)[C@H]3CN3CCC3)[C@@H]3[C@]1(CC[C@@]3(C)O)C2 [Compound 33]
2. C[C@@]12CC[C@@H]3[C@H](OC(=O)[C@H]3CN3CC4CCCC4C3)[C@@H]3[C@]1(CC[C@@]3(C)O)C2 (stereo partly shown) [Compound 32]
3. CN(C)C[C@@H]1C(=O)O[C@H]2[C@H]1CC[C@@]1(C)C[C@]13CC[C@@](C)(O)[C@H]23 [Compound 39]
4. CCCCN(CCCC)C[C@@H]1C(=O)O[C@H]2[C@H]1CC[C@@]1(C)C[C@]13CC[C@@](C)(O)[C@H]23 [Compound 30]
5. CC(C)N(C[C@@H]1C(=O)O[C@H]2[C@H]1CC[C@@]1(C)C[C@]13CC[C@@](C)(O)[C@H]23)C(C)C [Compound 31]
6. C[C@@]12CC[C@@H]3[C@H](OC(=O)[C@H]3CN3CCNCC3)[C@@H]3[C@]1(CC[C@@]3(C)O)C2 [Compound 26]

Response line:
1: 15.8%; 2: 15.4%; 3: 15%; 4: 14.6%; 5: 14%; 6: 16.1%
